System: EfPiwi piRISC loaded with piRNA #1 (26 nt)
PROCEDURE_DETAILS: pre-steady-state target cleavage rate (min^-1); auxiliary factor: 500 nM Ephydatia muelleri Gtsf1; guide: piRNA #1 5'p-UGAGGUAGUAGGUUGUAUAGUAUCCA; higher = faster piRNA-guided slicing of the target
RESULT_TYPE: pre-steady-state target cleavage rate
// return just the number, without any unit appended

| MACROMOLECULE_SEQUENCE | pre-steady-state target cleavage rate |
| --- | --- |
| GGAGUGGAUACUAUACAUGCUACUACCUCA | 0.00896 |
| GGAGACCUAACUAUACAACCUACUACAUCA | 0.0146 |
| GGAGAGCAAACUAUACAACCUACUACCUCA | 0.0127 |
| GGAGACGAUACUAUACAACCUAGUACCUGA | 0.00389 |
| GGAGACCAUACUAGACAACCUACUACCUCA | 0.0249 |

Sure, the documented pre-steady-state target cleavage rate for `GGAGACCUAACUAUACAACCUACUAUCUCA` is 0.0057

* * *

Test system: EfPiwi piRISC loaded with piRNA #1 (26 nt)
PROCEDURE_DETAILS: pre-steady-state target cleavage rate (min^-1); auxiliary factor: 500 nM Ephydatia muelleri Gtsf1; guide: piRNA #1 5'p-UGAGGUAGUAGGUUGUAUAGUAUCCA; higher = faster piRNA-guided slicing of the target
Please use Satisfied whenever pre-steady-state target cleavage rate is not below 0.006, and Not satisfied whenever it is.

Before answering, review these 2 worked examples.
| MACROMOLECULE_SEQUENCE | CATEGORY |
| --- | --- |
| GGAGACGAUACUAUACAACCCACUACCUCA | Satisfied |
| GGAGAGGAUACUCUACAACCUACUACCUCA | Not satisfied |

Ask | Could you tell me if the measured pre-steady-state target cleavage rate of `GGAGACGAUACUAUACAACCUACUACCUUA` reaches 0.006 or more?
Reply | Satisfied

Ask | Could you tell me if the measured pre-steady-state target cleavage rate of `GGAGUGGAUACUAUACAACCUAGAUCCUCA` reaches 0.006 or more?
Reply | Not satisfied

Ask | Could you tell me if the measured pre-steady-state target cleavage rate of `GGAGAGGAUACUAAACAAGCUACUACCUCA` reaches 0.006 or more?
Reply | Not satisfied

* * *

System: MILI (PIWIL2) piRISC loaded with L1MC piRNA (26 nt);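 note: 1 nM active piRISC with 0.1 nM target library at 33 °C single turnover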
PROCEDURE_DETAILS: pre-steady-state target cleavage rate (min^-1); guide: L1MC piRNA 5'p-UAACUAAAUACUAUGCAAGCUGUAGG; MIWI and MILI are mouse PIWI proteins and EfPiwi is from a freshwater sponge; tags in brackets are library labels; higher = faster piRNA-guided slicing of the target
CONDITIONS_USED: auxiliary factor: none (no GTSF1)
Recorded pre-steady-state target cleavage rate for the following sequences
// return just the number, without any unit appended

Answered cases to consult:
| MACROMOLECULE_SEQUENCE | pre-steady-state target cleavage rate |
| --- | --- |
| UCCUGGAUGUGCUACCAUAGUAUUUAGUUA | 0.0039 |
| UCCUGGAUGAGCUUGCAAAGUAUUUUGUUA | 0.00392 |
| UCCUGGAUGUGCUUGCAUAGUUUUUAGUAA | 0.00391 |

Sure, the documented pre-steady-state target cleavage rate for `UCCUGGAUGUCCUUUGCAUAGUAUUUAGUUA` is 0.0072

Sure, the documented pre-steady-state target cleavage rate for `UCCUGCUACAGCUUGAUAGUAUUUAGUUA` is 0.00396

Sure, the documented pre-steady-state target cleavage rate for `UCCUCCUACAGCUUCGUUAGUAUUUAGUUA` is 0.00396
